B1: Azoarcus group I ribozyme (parent)
chain: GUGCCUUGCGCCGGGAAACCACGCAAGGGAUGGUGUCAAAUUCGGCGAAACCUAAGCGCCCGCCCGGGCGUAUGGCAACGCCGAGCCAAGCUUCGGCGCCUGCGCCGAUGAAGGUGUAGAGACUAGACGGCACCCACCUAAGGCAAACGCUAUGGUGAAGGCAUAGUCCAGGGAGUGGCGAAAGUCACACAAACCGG

Variants of: B1
Assay: reverse-splicing fitness (ratio to wild type); higher = more active; in vitro selection; Mg2+ level not given
parameter: reverse-splicing fitness
Respond using a number only.

# input Fill in the blank: the reported reverse-splicing fitness of C82G A111G A145U C169G U176A is ____.
# output 0.0136

# input Any idea what reverse-splicing fitness was measured for A111U A120G A145G C150U U176G ?
# output 0.00725

# input State the recorded reverse-splicing fitness for this entry: C82A A111U A120C A145U C150G U176G
# output 0.00439

# input Given the variant C82A A111C A145G C169A , what is its reported reverse-splicing fitness?
# output 0.0103

# input reverse-splicing fitness lookup needed for C82U A111U A120G C150A C169G U176C , thanks.
# output 0.0213

# input Entry C82U A111C A120U C150A U176C : reported reverse-splicing fitness = ?
# output 0.00573

# input Tell me the measured reverse-splicing fitness of C82G A111C A120G C150G U176G , please.
# output 0.00284

# input What reverse-splicing fitness value was documented for this variant, C82U A111G A145C C150U C169A U176A ?
# output 0.00923

# input Can you look up the measured reverse-splicing fitness of C82G A111U A145U C150U C169G U176A for me?
# output 0.0132

# input Can you share its reverse-splicing fitness? I mean this variant: A120U A145G C150A C169G U176C
# output 0.0214

# input Would you kindly share the measured reverse-splicing fitness for A120C C150G C169A U176A ?
# output 0.0108

# input Find the recorded reverse-splicing fitness belonging to C82G A111G C150A C169U U176A and report it.
# output 0.0165

# input Bench note: what reverse-splicing fitness did C82G A111C A145C C150G C169U U176A show?
# output 0.00717

# input Please look up its reverse-splicing fitness: C82U A120G A145G C150A C169G U176A
# output 0.0157

# input Look up reverse-splicing fitness for this variant: C82U A111U A120G C150U C169G U176C
# output 0.0168

# input May I ask what reverse-splicing fitness has been recorded for C82G A111G A120G A145U C150G C169A U176A ?
# output 0.0118

# input Name the reported reverse-splicing fitness value associated with the variant C82U A111U A145U C150U C169G
# output 0.00898

# input Entry under review: A111U A120U C150U U176G . Reported reverse-splicing fitness?
# output 0.027

# input reverse-splicing fitness for C82U A120C C150U C169U U176G ?
# output 0.00448

# input Query: reverse-splicing fitness; subject: A120C A145G C150U C169U U176C
# output 0.186

# input So what does the record say about reverse-splicing fitness for C82A A111C A145C C150U C169U ?
# output 0.0121

# input For the variant C82A A111G A120G A145G U176C , what reverse-splicing fitness is on record?
# output 0.0205
